Recorded values, source paper PMC5458555.

Catalogue of pKd values
study system: MxA^MO2 (Homo sapiens, UniProt P20591, A149C/C322K/C336Q/C42S/C52S/M527D/S634C)
Construct: gene MX1; monomeric full-length-type MxA (M527D) with solvent-exposed cysteines replaced; N-terminal His6-PreScission tag cut, E. coli Rosetta (DE3); SEC peak ~70 kDa
Sequence (P20591 whole entry C42S/C52S/A149C/C322K/C336Q/M527D/S634C): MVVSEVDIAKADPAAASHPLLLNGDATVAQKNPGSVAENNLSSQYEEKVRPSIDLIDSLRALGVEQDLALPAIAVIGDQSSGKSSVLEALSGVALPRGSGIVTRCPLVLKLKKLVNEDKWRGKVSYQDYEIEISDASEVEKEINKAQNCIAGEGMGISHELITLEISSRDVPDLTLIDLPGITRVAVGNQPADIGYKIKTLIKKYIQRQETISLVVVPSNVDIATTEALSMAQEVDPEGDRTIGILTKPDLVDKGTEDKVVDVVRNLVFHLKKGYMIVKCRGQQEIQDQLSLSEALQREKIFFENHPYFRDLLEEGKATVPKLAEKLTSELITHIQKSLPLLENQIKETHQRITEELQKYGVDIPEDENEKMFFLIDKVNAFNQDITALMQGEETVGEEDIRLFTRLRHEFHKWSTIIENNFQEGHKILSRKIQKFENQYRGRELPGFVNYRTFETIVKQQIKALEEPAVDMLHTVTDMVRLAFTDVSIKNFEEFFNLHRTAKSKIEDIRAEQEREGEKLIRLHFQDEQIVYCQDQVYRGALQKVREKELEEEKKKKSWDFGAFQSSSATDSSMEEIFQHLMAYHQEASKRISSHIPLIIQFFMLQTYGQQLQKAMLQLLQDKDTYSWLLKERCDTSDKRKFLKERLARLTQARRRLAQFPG
assay info: isothermal titration calorimetry
Format: binding
condition context: read-out: equilibrium dissociation constant
pKd: −log10 of the molar value.
test readout: pKd

- Nc1nc(O)c2ncn([C@@H]3O[C@H](COP(=O)(O)OP(=O)(O)C[P+]([O-])(O)O)[C@@H](O)[C@H]3O)c2n1 [GMPPCP]: 4.52
- Nc1nc2c(ncn2[C@@H]2O[C@H](COP(=O)(O)OP(=O)(O)O)[C@@H](O)[C@H]2O)c(=O)[nH]1 [GDP]: 4.37
